Each entry below lists one item and its recorded Kd value.
- target: T1, ADF-1 (D. melanogaster) (Drosophila melanogaster, UniProt P05552 1-262)
- T1 sequence: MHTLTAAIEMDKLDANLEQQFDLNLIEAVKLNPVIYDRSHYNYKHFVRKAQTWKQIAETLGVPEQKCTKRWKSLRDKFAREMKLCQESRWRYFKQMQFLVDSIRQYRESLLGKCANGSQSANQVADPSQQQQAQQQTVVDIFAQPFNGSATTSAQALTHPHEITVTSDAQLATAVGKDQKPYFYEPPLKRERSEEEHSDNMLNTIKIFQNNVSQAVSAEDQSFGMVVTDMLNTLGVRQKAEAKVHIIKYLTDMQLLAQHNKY
- measurementProtocol: EMSA
observationType: Kd (µM)

{"columns": ["binder", "recordedResult"],
 "data": [
  ["Oligo 2 (dsDNA) DNA 1: ATCGACGTCAACGGCAGCGTTCACAT DNA 2: ATGTGAACGCTGCCGTTGACGTCGAT", 4.07],
  ["Oligo 1 (dsDNA) DNA 1: ATCGACGTCGGCGTCGACATCGTGA DNA 2: TCACGATGTCGACGCCGACGTCGAT", 1.98],
  ["Oligo 4 (dsDNA) DNA 1: TCGCTGTCTCAGTCGACGCTATTGAT DNA 2: ATCAATAGCGTCGACTGAGACAGCGA", 1.63],
  ["Oligo 3 (dsDNA) DNA 1: TCAATGTCGCCGTCGCTGTCTCAGTCG DNA 2: CGACTGAGACAGCGACGGCGACATTGA", 27.5]
]}
